Source listed as ChEMBL document CHEMBL4725393.

Would you mind telling me the reported AUC at 12 h of each entry?
assay: AUC in cynomolgus monkey at 2 mg/kg, po measured up to 12 hrs; assay type: ADME, organism-based, Macaca fascicularis; set-up: route oral, dose 2 mg/kg, time <=12; conditions: in vivo
Entry rule: numbers only, all in ng·h/mL.

For this compound ( COC(=O)N[C@H](C(=O)N1CCC[C@H]1c1nc2cc(F)c([C@H]3CC[C@H](c4cc5nc([C@@H]6CCCN6C(=O)[C@@H](NC(=O)OC)[C@@H](C)OC)n(COP(=O)(O)O)c5cc4F)N3c3cc(F)c(N4CCC(c5ccc(F)cc5)CC4)c(F)c3)cc2[nH]1)[C@@H](C)OC ), measured AUC at 12 h is 160

Note to self: AUC at 12 h recorded for COC(=O)N[C@H](C(=O)N1CCC[C@H]1c1nc2cc([C@H]3CC[C@H](c4cc5nc([C@@H]6CCCN6C(=O)[C@@H](NC(=O)OC)[C@@H](C)OC)[nH]c5cc4F)N3c3cc(F)c(N4CCC(c5ccc(F)cc5)CC4)c(F)c3)c(F)cc2[nH]1)[C@@H](C)OC [PIBRENTASVIR] was 166

Per the records, this compound ( COC(=O)N[C@H](C(=O)N1CCC[C@H]1c1nc2cc(F)c([C@H]3CC[C@H](c4cc5nc([C@@H]6CCCN6C(=O)[C@@H](NC(=O)OC)[C@@H](C)OC)n(COC(=O)Cc6ccc(OP(=O)(O)O)cc6)c5cc4F)N3c3cc(F)c(N4CCC(c5ccc(F)cc5)CC4)c(F)c3)cc2[nH]1)[C@@H](C)OC ) has AUC at 12 h equal to 197

Recorded AUC at 12 h (compound COC(=O)N[C@H](C(=O)N1CCC[C@H]1c1nc2cc(F)c([C@H]3CC[C@H](c4cc5nc([C@@H]6CCCN6C(=O)[C@@H](NC(=O)OC)[C@@H](C)OC)n(COC(=O)CC(C)(C)c6c(C)cc(C)cc6OP(=O)(O)O)c5cc4F)N3c3cc(F)c(N4CCC(c5ccc(F)cc5)CC4)c(F)c3)cc2[nH]1)[C@@H](C)OC ): 240

###

Consider the following compounds; for each one, report its AUC.
experiment: AUC in CD1 mouse assessed as pibrentasvir1 level at 3 mg/kg, po measured up to 24 hrs; assay type: ADME, organism-based; set-up: route oral, dose 3 mg/kg, time <=24; settings: in vivo
# number only, unit ng·h/mL dropped from output

Given item COC(=O)N[C@H](C(=O)N1CCC[C@H]1c1nc2cc(F)c([C@H]3CC[C@H](c4cc5nc([C@@H]6CCCN6C(=O)[C@@H](NC(=O)OC)[C@@H](C)OC)n(COP(=O)(O)O)c5cc4F)N3c3cc(F)c(N4CCC(c5ccc(F)cc5)CC4)c(F)c3)cc2[nH]1)[C@@H](C)OC , the value recorded as its AUC is 2660

Field AUC (entry COC(=O)N[C@H](C(=O)N1CCC[C@H]1c1nc2cc(F)c([C@H]3CC[C@H](c4cc5c(cc4F)nc([C@@H]4CCCN4C(=O)[C@@H](NC(=O)OC)[C@@H](C)OC)n5COP(=O)(O)O)N3c3cc(F)c(N4CCC(c5ccc(F)cc5)CC4)c(F)c3)cc2[nH]1)[C@@H](C)OC ) reads 278

Reported AUC of COC(=O)N[C@H](C(=O)N1CCC[C@H]1c1nc2cc([C@H]3CC[C@H](c4cc5c(cc4F)nc([C@@H]4CCCN4C(=O)[C@@H](NC(=O)OC)[C@@H](C)OC)n5COP(=O)(O)O)N3c3cc(F)c(N4CCC(c5ccc(F)cc5)CC4)c(F)c3)c(F)cc2n1COP(=O)(O)O)[C@@H](C)OC : 477

// COC(=O)N[C@H](C(=O)N1CCC[C@H]1c1nc2cc(F)c([C@H]3CC[C@H](c4cc5nc([C@@H]6CCCN6C(=O)[C@@H](NC(=O)OC)[C@@H](C)OC)n(COC(=O)[C@@H](NC(=O)COP(=O)(O)O)C(C)C)c5cc4F)N3c3cc(F)c(N4CCC(c5ccc(F)cc5)CC4)c(F)c3)cc2[nH]1)[C@@H](C)OC : AUC value = 3710
